Biological target: Vasopressin V2 receptor (Homo sapiens, UniProt P30518)
Sequence (P30518 whole entry): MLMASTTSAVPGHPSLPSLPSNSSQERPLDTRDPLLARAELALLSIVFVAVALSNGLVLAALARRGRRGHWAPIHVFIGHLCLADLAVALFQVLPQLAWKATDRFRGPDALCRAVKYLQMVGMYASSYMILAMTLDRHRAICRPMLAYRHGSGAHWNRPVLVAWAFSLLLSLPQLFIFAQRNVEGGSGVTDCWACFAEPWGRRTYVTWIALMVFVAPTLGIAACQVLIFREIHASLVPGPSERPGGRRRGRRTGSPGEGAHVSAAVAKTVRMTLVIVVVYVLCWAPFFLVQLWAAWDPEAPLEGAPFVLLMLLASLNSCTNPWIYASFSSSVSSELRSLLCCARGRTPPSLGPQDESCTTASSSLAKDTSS
Experiment: Agonist activity at human vasopressin V2 receptor expressed in CHO cells assessed as cAMP accumulation by HTRF assay
pEC50: −log10 of the molar value.
Below, each entry is listed with its recorded pEC50.

# annotated cases, reported pEC50 shown
# smiles text, observed result
measured = [
    ("CN1CCN(c2ccc(C(=O)N3CCC(F)(F)/C(=C\\C(=O)NCc4ccccn4)c4ccccc43)c(Cl)c2)CC1", "< 5.00"),
    ("CC(C)c1ccn(-c2ccc(C(=O)N3CCC(F)(F)/C(=C\\C(=O)NCc4ccccn4)c4ccccc43)c(Cl)c2)n1", "< 5.00"),
]

Task item: Which pEC50 reading was recorded for the compound CCc1ccn(-c2ccc(C(=O)N3CCC(F)(F)/C(=C\C(=O)NCc4ccccn4)c4ccccc43)c(Cl)c2)n1 ?
Reply: < 5.00

----------
Target: Vasopressin V2 receptor (Homo sapiens, UniProt P30518)
property name: Ki (nM)
Numeric answer only, unit nM assumed.

Task item: Which Ki reading was recorded for the compound CN1CCN(c2ccc(C(=O)N3CCC(F)(F)/C(=C\C(=O)NCc4ccccn4)c4ccccc43)c(Cl)c2)CC1 ?
Reply: 170
